- assayNotes: Biodistribution of 177Lu-labeled αMSH analogues in mice bearing SK-MEL-1 human melanoma
- experimentalConditions: male, NRG (NOD.Cg-Rag1tm1Mom Il2rgtm1Wjl/SzJ), mouse, SK-MEL-1 tumour, total radioactivity
Let's look at some molecules and their measured tissue uptake at 4 h.
Respond with the bare value in %ID/g.

Recorded tissue uptake at 4 h, per entry:
>>> reading("CCCC[C@H](NC(=O)CN1CCC(NC(=O)[C@H](CCCCNC(=O)CN2CCN(CC(=O)O)CCN(CC(=O)O)CCN(CC(=O)O)CC2)NC(=O)CNC(=O)CCCc2ccc(I)cc2)CC1)C(=O)N[C@H]1CC(=O)NCCCC[C@@H](C(N)=O)N(C)C(=O)[C@H](Cc2c[nH]c3ccccc23)NC(=O)[C@H](CCCNC(=N)N)N(C)C(=O)[C@@H](Cc2ccccc2)NC(=O)[C@H](Cc2c[nH]cn2)NC1=O [^177Lu-labeled CCZ01148, metal not drawn]")
9.46
>>> reading("CCCC[C@H](NC(=O)CN1CCC(NC(=O)[C@H](CCCCNC(=O)CN2CCN(CC(=O)O)CCN(CC(=O)O)CCN(CC(=O)O)CC2)NC(=O)[C@H](CCC(=O)O)NC(=O)CCCc2ccc(I)cc2)CC1)C(=O)N[C@H]1CC(=O)NCCCC[C@@H](C(N)=O)N(C)C(=O)[C@H](Cc2c[nH]c3ccccc23)NC(=O)[C@H](CCCNC(=N)N)N(C)C(=O)[C@@H](Cc2ccccc2)NC(=O)[C@H](Cc2c[nH]cn2)NC1=O [^177Lu-labeled CCZ01118, metal not drawn]")
14

Okay, now this molecule:
Q: Need tissue uptake at 4 h of CCCC[C@H](NC(=O)CN1CCC(NC(=O)[C@H](CCCCNC(=O)CN2CCN(CC(=O)O)CCN(CC(=O)O)CCN(CC(=O)O)CC2)NC(=O)CNC(=O)CCCc2ccc(-c3ccc(C)cc3)cc2)CC1)C(=O)N[C@H]1CC(=O)NCCCC[C@@H](C(N)=O)N(C)C(=O)[C@H](Cc2c[nH]c3ccccc23)NC(=O)[C@H](CCCNC(=N)N)N(C)C(=O)[C@@H](Cc2ccccc2)NC(=O)[C@H](Cc2c[nH]cn2)NC1=O [^177Lu-labeled CCZ01158, metal not drawn] , thanks.
Ans: 24.3

====

- assayNotes: In vivo stability in mouse urine at 1 h p.i. (radio-HPLC)
- Design: species or system C57BL/6J mice
Let's look at some compounds and their measured In vivo urine stability, intact tracer.
Respond with the bare value in %.

Recorded In vivo urine stability, intact tracer, per entry:
>>> reading("CCCC[C@H](NC(=O)CN1CCC(NC(=O)CN2CCN(CC(=O)O)CCN(CC(=O)O)CCN(CC(=O)O)CC2)CC1)C(=O)N[C@H]1CC(=O)NCCCC[C@@H](C(N)=O)NC(=O)[C@H](Cc2c[nH]c3ccccc23)NC(=O)[C@H](CCCNC(=N)N)N(C)C(=O)[C@@H](Cc2ccccc2)NC(=O)[C@H](Cc2c[nH]cn2)NC1=O [[^68Ga]Ga-CCZ01114, metal not drawn]")
41.4
>>> reading("CCCC[C@H](NC(=O)CN1CCC(NC(=O)CN2CCN(CC(=O)O)CCN(CC(=O)O)CCN(CC(=O)O)CC2)CC1)C(=O)N[C@H]1CC(=O)NCCCC[C@@H](C(N)=O)NC(=O)[C@H](Cc2c[nH]c3ccccc23)N(C)C(=O)[C@H](CCCNC(=N)N)N(C)C(=O)[C@@H](Cc2ccccc2)NC(=O)[C@H](Cc2c[nH]cn2)NC1=O [[^68Ga]Ga-CCZ01104, metal not drawn]")
92.5
>>> reading("CCCC[C@H](NC(=O)CN1CCC(NC(=O)CN2CCN(CC(=O)O)CCN(CC(=O)O)CCN(CC(=O)O)CC2)CC1)C(=O)N[C@H]1CC(=O)NCCCC[C@@H](C(N)=O)N(C)C(=O)[C@H](Cc2c[nH]c3ccccc23)NC(=O)[C@H](CCCNC(=N)N)N(C)C(=O)[C@@H](Cc2ccccc2)NC(=O)[C@H](Cc2c[nH]cn2)NC1=O [CCZ01106]")
82.5

Q: Need In vivo urine stability, intact tracer of CCCC[C@H](NC(=O)CN1CCC(NC(=O)CN2CCN(CC(=O)O)CCN(CC(=O)O)CCN(CC(=O)O)CC2)CC1)C(=O)N[C@H]1CC(=O)NCCCC[C@@H](C(N)=O)N(C)C(=O)[C@H](Cc2c[nH]c3ccccc23)N(C)C(=O)[C@H](CCCNC(=N)N)N(C)C(=O)[C@@H](Cc2ccccc2)NC(=O)[C@H](Cc2c[nH]cn2)NC1=O [[^68Ga]Ga-CCZ01103, metal not drawn] , thanks.
Ans: 92.6

Q: Cool, now CCCC[C@H](NC(=O)CN1CCC(NC(=O)CN2CCN(CC(=O)O)CCN(CC(=O)O)CCN(CC(=O)O)CC2)CC1)C(=O)N[C@H]1CC(=O)NCCCC[C@@H](C(N)=O)N(C)C(=O)[C@H](Cc2c[nH]c3ccccc23)N(C)C(=O)[C@H](CCCNC(=N)N)NC(=O)[C@@H](Cc2ccccc2)NC(=O)[C@H](Cc2c[nH]cn2)NC1=O [[^68Ga]Ga-CCZ01105, metal not drawn]
Ans: 65.8

Q: Cool, now CCCC[C@H](NC(=O)CN1CCC(NC(=O)CN2CCN(CC(=O)O)CCN(CC(=O)O)CCN(CC(=O)O)CC2)CC1)C(=O)N[C@H]1CC(=O)NCCCC[C@@H](C(N)=O)N(C)C(=O)[C@H](Cc2c[nH]c3ccccc23)N(C)C(=O)[C@H](CCCNC(=N)N)N(C)C(=O)[C@@H](Cc2ccccc2)NC(=O)[C@H](Cc2c[nH]cn2)N(C)C1=O [^68Ga-labeled CCZ01099, metal not drawn]
Ans: 34.0
